Target: full-length beta-Catenin (Uniprot ID P35222) (Homo sapiens (Human)) (UniProt P35222)
Sequence (P35222 2-781 limits assumed): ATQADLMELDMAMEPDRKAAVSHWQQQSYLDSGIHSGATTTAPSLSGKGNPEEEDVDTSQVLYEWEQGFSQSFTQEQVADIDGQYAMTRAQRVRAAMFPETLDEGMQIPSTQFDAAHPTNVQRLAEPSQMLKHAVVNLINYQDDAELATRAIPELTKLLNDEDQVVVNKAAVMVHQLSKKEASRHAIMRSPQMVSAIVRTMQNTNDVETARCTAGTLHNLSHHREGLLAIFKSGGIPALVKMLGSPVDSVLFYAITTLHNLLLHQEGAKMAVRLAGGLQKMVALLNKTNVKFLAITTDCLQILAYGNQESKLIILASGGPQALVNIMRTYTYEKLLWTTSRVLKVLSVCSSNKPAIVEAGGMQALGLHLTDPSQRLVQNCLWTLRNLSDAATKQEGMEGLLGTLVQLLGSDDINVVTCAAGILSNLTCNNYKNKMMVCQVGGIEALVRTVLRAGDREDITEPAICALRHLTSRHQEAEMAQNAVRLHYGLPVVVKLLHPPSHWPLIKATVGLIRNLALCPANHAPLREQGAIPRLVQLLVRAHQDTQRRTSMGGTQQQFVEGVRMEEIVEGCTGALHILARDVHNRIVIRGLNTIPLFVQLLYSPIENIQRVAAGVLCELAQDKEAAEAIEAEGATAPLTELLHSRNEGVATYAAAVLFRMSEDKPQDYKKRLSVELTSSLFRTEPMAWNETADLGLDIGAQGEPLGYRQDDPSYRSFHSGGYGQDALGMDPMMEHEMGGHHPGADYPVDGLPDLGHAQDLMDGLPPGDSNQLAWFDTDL
Experiment: fluorescence polarization competition vs 5FAM-TCF4(10-53) on full-length beta-catenin
pIC50: −log10 of the molar value. Starred links: 1 amine or outer side, 2 acyl side, 3 side chain; linkers in the order of their positions; H or OH if unused. Positions of bridges follow the written chain, without caps; N, C: chain ends. Non-standard residues stand in square brackets, D forms with d. Primed or numbered codes have the meaning given here. PyrS2″ = (S)-3-amino-1-((pent-4-en-1-yloxy)carbonyl)pyrrolidine-3-carboxylic acid (stapling residue), C=CCCCOC(=O)N1CC[C@@](N[*:1])(C(=O)[*:2])C1; B5(4) = 2,2-bis(4-pentenyl)glycine = 2-amino-2-(pent-4-en-1-yl)hept-6-enoic acid (stitching residue), C=CCCCC(CCCC=C)(N[*:1])C(=O)[*:2]; TfeGA = (S)-2-amino-3-((carboxymethyl)(2,2,2-trifluoroethyl)amino)propanoic acid, O=C([C@H](CN(CC(=O)[*:3])CC(F)(F)F)N[*:1])[*:2]; PyrS2 = (S)-3-amino-1-((pent-4-en-1-yloxy)carbonyl)pyrrolidine-3-carboxylic acid, C=CCCCOC(=O)N1CC[C@@](N[*:1])(C(=O)[*:2])C1; B5(25) = 2-amino-2-(pent-4-en-1-yl)hept-6-enoic acid (stitching residue), C=CCCCC(CCCC=C)(N[*:1])C(=O)[*:2]; EtGA = (S)-2-amino-3-((carboxymethyl)(ethyl)amino)propanoic acid, CCN(CC(=O)[*:3])C[C@H](N[*:1])C(=O)[*:2]; B5 = 2-amino-2-(pent-4-en-1-yl)hept-6-enoic acid, C=CCCCC(CCCC=C)(N[*:1])C(=O)[*:2]; Phe(2-Cl) = N[C@@H](Cc1ccccc1Cl)C(=O)O; Bta = N[C@@H](Cc1csc2ccccc12)C(=O)O; αAllylPro = C=CC[C@@]1(C(=O)O)CCCN1; tBuAla = CC(C)(C)C[C@H](N)C(=O)O; 3Thi = N[C@@H](Cc1ccsc1)C(=O)O; Cha = N[C@@H](CC1CCCCC1)C(=O)O
Measured endpoint: pIC50

Binder | Measured endpoint | Measured number
Ac-[αAllylPro]D[tBuAla][B5(25)]D[TfeGA]AAFF[PyrS2″][3Thi][Bta]S-NH2 (staple 1-4, 4-11; not fully specified) [I-963] | pIC50 | 6.40
Ac-[αAllylPro]D[tBuAla][B5]D[TfeGA]AAFN[PyrS2][3Thi][Bta]Y-NH2 (staple 1-4, 4-11; also: earlier-eluting staple isomer composition) [I-952] | pIC50 | 5.92
Ac-[αAllylPro]D[tBuAla][B5]D[TfeGA]AAFT[PyrS2][3Thi][Bta]S-NH2 (staple 1-4, 4-11; also: later-eluting staple isomer composition) [I-957] | pIC50 | 5.85
Ac-[αAllylPro]D[tBuAla][B5(25)]D[TfeGA]AAFF[PyrS2″][3Thi][Bta]S-NH2 (staple 1-4, 4-11; also: earlier-eluting HPLC staple isomer) [I-962] | pIC50 | 6.39
Ac-[αAllylPro]D[tBuAla][B5(25)]D[EtGA]AAFS[PyrS2″][3Thi][Bta]Q-NH2 (staple 1-4, 4-11; not fully specified; printed as Ac-PL3-Asp-Npg-B5-Asp-EtGA-Ala-Ala-Phe-Ser-PyrS2-3Thi-BztA-Gln-NH2) [I-967] | pIC50 | 5.76
Ac-[αAllylPro]D[tBuAla][B5(25)]D[EtGA]AAFS[PyrS2″][3Thi][Bta]Q-NH2 (staple 1-4, 4-11; also: earlier-eluting HPLC staple isomer) [I-966] | pIC50 | 5.69

a: Ac-[αAllylPro]D[tBuAla][B5(4)]D[EtGA]AAFS[PyrS2″][3Thi][Bta]S-NH2 (staple 1-4, 4-11; also: earlier eluting HPLC staple isomer) [I-974]
b: Ac-[αAllylPro]D[Cha][B5(4)]DDAAFL[PyrS2″][Phe(2-Cl)][Bta][dT]-NH2 (staple 1-4, 4-11) [I-1140]
Name the one with the greater pIC50 value, either a or b as given. // return label of chosen record
b
